// provenance: the RNAGym collection of RNA variant scans (doi:10.1093/molbev/msab373)

Kindly state reverse-splicing fitness for each of the entries shown.
B1: Azoarcus group I ribozyme (parent)
chain: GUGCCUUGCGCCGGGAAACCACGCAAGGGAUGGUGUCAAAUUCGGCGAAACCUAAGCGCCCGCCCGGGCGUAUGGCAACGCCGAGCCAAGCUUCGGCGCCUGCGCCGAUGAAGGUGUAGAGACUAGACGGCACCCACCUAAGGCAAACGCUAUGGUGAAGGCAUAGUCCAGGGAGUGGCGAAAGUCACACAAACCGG

Variants of: B1
measurement-notes: reverse-splicing fitness (ratio to wild type); higher = more active; in vitro selection; Mg2+ level not given
Give bare numbers.

Return reported reverse-splicing fitness values for all items listed beneath this line.
1. A111U A145C C150A
2. A111C A145G C150U C169U
3. C82U A111C A145U C150A U176A

Found:
[0.23, 0.0877, 0.0153]

For every listed record, write down its reverse-splicing fitness.
1. C82A A111C A120C A145C C150U C169G U176G
2. C82G A111G A120G A145C C150A C169U U176C
3. C82A A120U A145U C169G U176G
4. C82U A111C A120C C150U C169G U176C
5. C82A A120C C150U C169G U176C
6. A120C C150U C169G U176C
7. C82G A111G A145G C150G C169G

Found:
1. 0.00659
2. 0.0128
3. 0.00116
4. 0.0153
5. 0.0201
6. 0.0142
7. 0.00774

Provide reverse-splicing fitness values for the following items, in order.
1. C82G A111U A145U C150A C169U U176A
2. C82G A111G A145C C150U
3. C82U A145U C169G U176G
4. C82G A120G A145C C150A C169A
5. C82U A111U A120C A145U C150G U176A
6. C82A A111G A120U C150G C169G U176A

Found:
1. 0.0141
2. 0.0841
3. 0.00447
4. 0.00825
5. 0.00587
6. 0.00567
